Ref: patent US20260355182A1

biological target: Pgk1 (Homo sapiens, UniProt P00558); experiment: T6 binding affinity with Pgk1 by SPR; details: steady-state affinity model, read-out: KD (fitted dissociation constant)
readout_type: Kd (µM)
Return type: number; implicit unit µM.

Incoming: Return the recorded Kd value; entry: Nc1nc(N2CCN(C(=O)[C@H]3CCCO3)CC2)cc2cc3c(cc12)OCC3 [Compound T6]
Outgoing: 22.4

###

target: Pgk1 (Homo sapiens); assay: Affinity for Pgk1 protein (Biacore T200); type: binding; settings: + saturated ADP; read-out: Affinity (KD) in the presence of ADP
readout_type: Kd

Incoming: Return the recorded Kd value; entry: `Nc1nc(N2CCN(C(=O)[C@H]3CCCO3)CC2)cc2cc3c(cc12)OCC3`
Outgoing: > 1000 µM

###

molecular target: Pgk1 (Homo sapiens, UniProt P00558); experiment: T6 binding affinity with Pgk1 by SPR; settings: steady-state affinity model, read-out: KD (approximately)
readout_type: Kd

Incoming: Return the recorded Kd value; entry: Nc1nc(N2CCN(C(=O)[C@H]3CCCO3)CC2)cc2cc3c(cc12)OCC3 [Compound T6]
Outgoing: ~22.4 µM

###

Molecular target: Pgk1 (Homo sapiens, UniProt P00558)
Sequence (P00558 1-417): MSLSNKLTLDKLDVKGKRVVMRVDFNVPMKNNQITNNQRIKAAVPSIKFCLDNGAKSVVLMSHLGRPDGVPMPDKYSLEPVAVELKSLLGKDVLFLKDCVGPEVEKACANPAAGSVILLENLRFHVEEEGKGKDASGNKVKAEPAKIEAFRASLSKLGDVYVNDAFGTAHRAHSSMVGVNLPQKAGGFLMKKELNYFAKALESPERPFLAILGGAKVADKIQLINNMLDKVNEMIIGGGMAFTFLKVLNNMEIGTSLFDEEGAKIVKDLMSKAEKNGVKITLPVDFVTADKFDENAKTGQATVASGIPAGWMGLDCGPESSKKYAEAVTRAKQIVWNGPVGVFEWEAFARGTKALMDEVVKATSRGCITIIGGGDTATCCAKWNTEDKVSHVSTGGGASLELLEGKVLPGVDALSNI
Test: Affinity for Pgk1 protein (Biacore T200)
Format: binding
Details: drug alone; amount of small-molecule drug bound
Experimental: Example 30: Determination of Affinities of Compounds for Pgk1 Protein Purified Pgk1 protein (with a concentration of 1 mg/mL) was immobilized on a Biacore T200 chip. […] The obtained curves can calculate parameters such as affinity and Rmax.
readout_type: Rmax (RU)
Return type: number; implicit unit RU.

INSERT INTO results (compound, unit_text, reported_result) VALUES
  ('Nc1nc(N2CCN(C(=O)[C@H]3CCCO3)CC2)cc2cc3c(cc12)CCO3 [Compound T5]', 'RU', 86),
  ('Nc1nc(N2CCN(C(=O)[C@H]3CCCO3)CC2)cc2cc3c(cc12)OCO3 [Compound T1]', 'RU', 116);

Incoming: Return the recorded Rmax value; entry: Nc1nc(N2CCN(C(=O)[C@H]3CCCO3)CC2)cc2cc3c(cc12)OCC3 [Compound T6]
Outgoing: 106

###

Target: Pgk1 (Homo sapiens, UniProt P00558)
Sequence (P00558 1-417): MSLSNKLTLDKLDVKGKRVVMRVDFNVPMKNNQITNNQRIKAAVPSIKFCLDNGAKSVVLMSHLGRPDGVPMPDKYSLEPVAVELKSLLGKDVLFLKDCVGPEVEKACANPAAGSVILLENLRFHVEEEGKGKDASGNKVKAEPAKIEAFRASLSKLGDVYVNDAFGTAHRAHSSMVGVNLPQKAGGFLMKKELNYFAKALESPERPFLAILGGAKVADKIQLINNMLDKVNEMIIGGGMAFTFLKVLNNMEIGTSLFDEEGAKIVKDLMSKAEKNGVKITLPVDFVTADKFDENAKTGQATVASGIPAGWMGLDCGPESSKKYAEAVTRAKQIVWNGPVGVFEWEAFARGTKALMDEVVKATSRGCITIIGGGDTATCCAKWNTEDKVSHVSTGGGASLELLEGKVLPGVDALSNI
Assay: Affinity for Pgk1 protein (Biacore T200)
Assay type: binding
Settings: drug alone; amount of small-molecule drug bound
readout_type: Rmax (RU)
Return type: number; implicit unit RU.

INSERT INTO results (molecule, reported_result) VALUES
  ('Nc1nc(N2CCN(C(=O)[C@@H]3CCCN3)CC2)cc2cc3c(cc12)OCO3', 87);

Incoming: Return the recorded Rmax value; entry: Nc1ncnc2c1ncn2[C@@H]1O[C@H](COP(=O)(O)OP(=O)(O)O)[C@@H](O)[C@H]1O [ADP, reference compound]
Outgoing: 35

Incoming: Return the recorded Rmax value; entry: `CC1(C)Oc2cc3cc(N4CCN(C(=O)[C@H]5CCCO5)CC4)nc(N)c3cc2O1`
Outgoing: 75

Incoming: Return the recorded Rmax value; entry: `Nc1nc(N2CCN(C(=O)[C@H]3CCCN3)CC2)cc2cc3c(cc12)OCO3`
Outgoing: 87

Incoming: Return the recorded Rmax value; entry: `Nc1nc(N2CCN(C(=O)C3CCCC3)CC2)cc2cc3c(cc12)OCO3`
Outgoing: 159

Incoming: Return the recorded Rmax value; entry: CC1Oc2cc3cc(N4CCN(C(=O)[C@H]5CCCO5)CC4)nc(N)c3cc2O1 (some centres unmarked)
Outgoing: 93

Incoming: Return the recorded Rmax value; entry: `Nc1nc(N2CCN(C(=O)[C@@H]3CCCO3)CC2)cc2cc3c(cc12)OCO3`
Outgoing: 122
